These data points were gathered from patent US8088808B2.

Quick reference for inhibition at 10 µM among some compounds
Molecular target: MCH receptor (Homo sapiens)
Sequence (Q99705 whole entry): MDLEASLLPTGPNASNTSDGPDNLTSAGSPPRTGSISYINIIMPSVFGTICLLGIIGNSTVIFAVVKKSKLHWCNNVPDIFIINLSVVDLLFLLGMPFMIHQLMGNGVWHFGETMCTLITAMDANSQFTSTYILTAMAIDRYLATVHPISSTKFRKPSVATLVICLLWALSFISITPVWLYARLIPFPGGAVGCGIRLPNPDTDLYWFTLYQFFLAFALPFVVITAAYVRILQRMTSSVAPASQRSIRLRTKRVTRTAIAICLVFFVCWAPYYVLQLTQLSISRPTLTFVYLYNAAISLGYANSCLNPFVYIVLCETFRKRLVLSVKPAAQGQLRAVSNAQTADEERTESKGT
Assay: MCH receptor [125J]-ligand binding filtration assay
Settings: 10 μM test compound; percent inhibition of ligand binding
Experimental: The activity of the compounds of this invention at the MCH receptor site, if any was measured by the procedures as set forth below. • Test Compounds The compounds of this invention were stored in a 96-well microtiter plates (1 μL, 10 mM, 100% DMSO). Each of the test sample was diluted with 249 μL of 100% DMSO (dilution 1:250). […] The radioactivity was then measured, settings ^125J standard, 30 sec./well.
Where a name gives a salt, the structure may show the parent alone.

# compound, inhibition at 10 µM, %
records = [
    ("Cc1noc(C)c1C(=O)Nc1ccc(N2CCC(N3CCCC3C)C2)cc1 (stereo not shown) [Example 26, trifluoroacetate]", 9.4),
    ("Cc1cc(N2CCC(N3CCCC3C)C2)ccc1NC(=O)c1cc(-c2ccncc2)n[nH]1 (stereo not shown) [Example 37, trifluoroacetate]", 34.4),
    ("Cc1nc(C(=O)Nc2ccc(N3CC[C@H](N4CCC[C@@H]4C)C3)cc2C)co1 [Example 28, trifluoroacetate]", 7),
    ("Cc1cc(N2CCC(N3CCCC3C)C2)ccc1NC(=O)C1C[C@@H]2CC[C@H]1C2 (stereo partly shown) [Example 12]", -2.8),
    ("Cc1cc(N2CCC(N3CCCC3C)C2)ccc1NC(=O)c1ccc(-n2ccccc2=O)o1 (stereo not shown) [Example 32]", 10.9),
    ("Cc1cc(NC(=O)C2C[C@@H]3CC[C@H]2C3)ccc1N1CCC(N2CCCC2C)C1 (stereo partly shown) [Example 23, trifluoroacetate]", 11.2),
    ("CC1CCCN1C1CCN(c2ccc(NC(=O)C3C(C)(C)C3(C)C)cc2)C1 (stereo not shown) [Example 25, trifluoroacetate]", 15),
]

###

biological target: MCH receptor (Homo sapiens); test: MCH receptor [125J]-ligand binding filtration assay; details: 10 μM test compound; percent inhibition of ligand binding
Where a name gives a salt, the structure may show the parent alone.
Below, each entry is listed with its recorded inhibition at 10 µM.

# molecule, units, inhibition at 10 µM
rows = [
    ("Cc1cc(N2CC[C@H](N3CCC[C@@H]3C)C2)ccc1NC(=O)c1cc(C)n(C)n1 [Example 15, hydrochloride]", "%", 10.3),
    ("CC1CCCN1C1CCN(c2ccc(NC(=O)c3cn[nH]c3)cc2)C1 (centres unmarked)", "%", 4.8),
    ("Cc1cc(N2CC[C@H](N3CCC[C@@H]3C)C2)ccc1NC(=O)c1ccoc1", "%", -6.9),
    ("Cc1cc(N2CC[C@H](N3CCC[C@@H]3C)C2)ccc1NC(=O)CC1CCCC1 [Example 21, trifluoroacetate]", "%", 1.9),
    ("Cc1cc(C(=O)Nc2ccc(N3CCC(N4CCCC4C)C3)cc2)n[nH]1 (centres unmarked) [Example 31, trifluoroacetate]", "%", 30.5),
    ("Cc1cc(NC(=O)C2CCOCC2)ccc1N1CCC(N2CCCC2C)C1 (centres unmarked)", "%", 2.7),
    ("Cc1cc(N2CCC(N3CCCC3C)C2)ccc1NC(=O)C1CC1 (centres unmarked)", "%", 4),
    ("CC1CCCN1C1CCN(c2ccc(NC(=O)C3CCOCC3)cc2)C1 (centres unmarked)", "%", -2.8),
]

###

biological target: rhesus (Macaca Mulatta) H3 receptor (Macaca mulatta, UniProt Q865E1); assay: Rhesus H3 radioligand binding assay ([3H]-Methylhistamine displacement, WGA SPA beads); set-up: species or system rhesus monkey (Macaca Mulatta); settings: Table 2; procedure of Example 42
Sequence (Q865E1 1-445): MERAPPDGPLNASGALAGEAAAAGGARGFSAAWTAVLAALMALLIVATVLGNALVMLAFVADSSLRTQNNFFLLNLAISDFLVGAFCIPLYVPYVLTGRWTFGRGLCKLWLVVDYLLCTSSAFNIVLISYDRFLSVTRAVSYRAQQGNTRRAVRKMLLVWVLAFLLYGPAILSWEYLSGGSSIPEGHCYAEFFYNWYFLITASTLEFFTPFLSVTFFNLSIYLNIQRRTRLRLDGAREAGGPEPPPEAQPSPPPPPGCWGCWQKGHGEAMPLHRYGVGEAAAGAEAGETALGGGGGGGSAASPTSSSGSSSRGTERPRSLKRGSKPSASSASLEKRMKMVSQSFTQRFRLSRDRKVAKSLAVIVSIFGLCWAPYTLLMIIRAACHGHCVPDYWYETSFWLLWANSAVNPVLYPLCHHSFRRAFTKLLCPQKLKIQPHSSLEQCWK
Counter-ions that a name gives are not always drawn.

# compound, Ki, nM
rows = [
    ("Cc1cc(N2CC[C@H](N3CCC[C@@H]3C)C2)ccc1NC(=O)C1C(C)(C)C1(C)C [Example 16, trifluoroacetate]", 0.8),
    ("Cc1cc(N2CC[C@H](N3CCC[C@@H]3C)C2)ccc1NC(=O)c1c(C)noc1C [Example 1]", 0.4),
    ("Cc1cc(N2CC[C@H](N3CCC[C@@H]3C)C2)ccc1NC(=O)c1ccco1 [Example 19, trifluoroacetate]", 3.9),
    ("Cc1cc(N2CCC(N3CCCC3C)C2)ccc1NC(=O)c1c(C)noc1C (stereo not drawn) [Example 18, trifluoroacetate]", 2.6),
    ("Cc1cc(N2CC[C@H](N3CCC[C@@H]3C)C2)ccc1NC(=O)CC1CCCC1 [Example 21, trifluoroacetate]", 0.9),
    ("CC1CCCN1C1CCN(c2ccc(NC(=O)c3cn[nH]c3)cc2)C1 (stereo not drawn) [Example 13]", 22.1),
]
